All figures here come from ChEMBL document CHEMBL4513216.

- PROTOCOL DETAILS: Toxicity liver stage against HepG2, at 10uM
- Assay type: cell-based
- Parameters: test concentration 10 uM, cell line HepG2-A16-CD81EGFP
- ASSAY CONDITIONS: human, HepG2-A16-CD81EGFP cells; read-out: INHIBITION
Listed below: cytotoxicity at 10 µM values for each entry.
Reply with just the number (in %).

The examples below pair each entry with its known result.
[[record]]
compound = "O=C(c1cccnc1)N1CCC2(CCN(C(=O)N3CCCC3)CC2)C1"
experimental_readout = "cytotoxicity at 10 µM"
readout_value = -103

[[record]]
compound = "CCn1c(C2CCN(C(=O)c3ccc4sc(C)nc4c3)CC2)n[nH]c1=O"
experimental_readout = "cytotoxicity at 10 µM"
readout_value = -18

[[record]]
compound = "CC(C)(C)OC(=O)NCC1CCCCN1Cc1ccncc1 (centres undefined)"
experimental_readout = "cytotoxicity at 10 µM"
readout_value = 9.04


Input: # lookup: cytotoxicity at 10 µM of CCOc1ncccc1C(=O)N(C)C1CCN(c2ccccn2)CC1
Output: -18.7

Input: # lookup: cytotoxicity at 10 µM of O=C(CCc1nc(Cl)n[nH]1)N1C[C@@H](CN2CCCCCC2)[C@@H](CO)C1
Output: 0.152

Input: # lookup: cytotoxicity at 10 µM of COC(=O)CN(C(=O)c1ccc(Cl)cn1)c1cccc(F)c1
Output: -8.61

Input: # lookup: cytotoxicity at 10 µM of O=C(CC1OCCc2ccccc21)NCCn1cccc1 (centres undefined)
Output: 1.71

Input: # lookup: cytotoxicity at 10 µM of Cn1ccc(C(=O)N2CCN(c3ccccn3)CC2)cc1=O
Output: -9.43

Input: # lookup: cytotoxicity at 10 µM of CCC(CC)CN1CCN(CC(=O)Nc2ccc3nsnc3c2)CC1
Output: -13.8

Input: # lookup: cytotoxicity at 10 µM of CC(C)(C)c1cn(CC2CCCN(c3cnc4ccccc4n3)C2)nn1 (centres undefined)
Output: 42.9

Input: # lookup: cytotoxicity at 10 µM of CCOCC(=O)NCCCn1ccnc1-c1ccccc1
Output: -1.11

Input: # lookup: cytotoxicity at 10 µM of Cc1nn(-c2ncnc3[nH]cnc23)c2c1C(C(C)(C)C)CC(=O)N2 (centres undefined)
Output: 5.08

Input: # lookup: cytotoxicity at 10 µM of CCc1nnc(Nc2cccc(C3CCN(S(=O)(=O)N(C)C)CC3)n2)s1
Output: -16.2

Input: # lookup: cytotoxicity at 10 µM of Cc1nc(-c2ccc(F)cc2)cc(C2CCNCC2)n1
Output: 8.1
